- Measurement Target: USP5 (ubiquitin-specific protease 5) (Homo sapiens)
- Sequence (P45974 2-858): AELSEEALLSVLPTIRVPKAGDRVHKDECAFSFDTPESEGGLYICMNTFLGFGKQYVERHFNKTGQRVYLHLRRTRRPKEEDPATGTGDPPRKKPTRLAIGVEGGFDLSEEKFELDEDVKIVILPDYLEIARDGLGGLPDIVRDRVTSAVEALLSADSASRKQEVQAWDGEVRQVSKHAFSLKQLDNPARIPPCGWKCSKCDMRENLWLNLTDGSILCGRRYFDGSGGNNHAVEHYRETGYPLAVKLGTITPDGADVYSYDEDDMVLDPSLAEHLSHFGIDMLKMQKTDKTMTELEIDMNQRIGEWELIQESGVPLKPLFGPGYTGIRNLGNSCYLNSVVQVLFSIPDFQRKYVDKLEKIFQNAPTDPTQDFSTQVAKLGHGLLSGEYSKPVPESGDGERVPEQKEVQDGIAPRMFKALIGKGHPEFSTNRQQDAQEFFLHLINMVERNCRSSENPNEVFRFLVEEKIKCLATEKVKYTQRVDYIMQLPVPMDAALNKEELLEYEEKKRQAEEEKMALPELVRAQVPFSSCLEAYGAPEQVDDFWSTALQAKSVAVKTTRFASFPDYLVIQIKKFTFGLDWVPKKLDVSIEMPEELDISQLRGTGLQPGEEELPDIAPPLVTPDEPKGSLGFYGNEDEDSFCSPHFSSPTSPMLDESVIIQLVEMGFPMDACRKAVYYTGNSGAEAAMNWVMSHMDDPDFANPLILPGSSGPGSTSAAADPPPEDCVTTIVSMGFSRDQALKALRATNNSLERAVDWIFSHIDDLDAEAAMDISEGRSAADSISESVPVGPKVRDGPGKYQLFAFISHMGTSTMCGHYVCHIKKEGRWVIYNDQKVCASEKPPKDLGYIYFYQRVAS
Readout Kind: Kd (µM)

>>> print(df.to_string())
                       given_smiles  unit_symbol  numeric_value
0  COc1ccc(-c2coc3cc(O)ccc3c2=O)cc1           µM           25.1

Reference for the values: paper PMC6376178
